# system: LRRK2 phospho-Ser935 (Homo sapiens, UniProt Q5S007)
# Construct: expressed in transfected cells
# Sequence (Q5S007 whole entry): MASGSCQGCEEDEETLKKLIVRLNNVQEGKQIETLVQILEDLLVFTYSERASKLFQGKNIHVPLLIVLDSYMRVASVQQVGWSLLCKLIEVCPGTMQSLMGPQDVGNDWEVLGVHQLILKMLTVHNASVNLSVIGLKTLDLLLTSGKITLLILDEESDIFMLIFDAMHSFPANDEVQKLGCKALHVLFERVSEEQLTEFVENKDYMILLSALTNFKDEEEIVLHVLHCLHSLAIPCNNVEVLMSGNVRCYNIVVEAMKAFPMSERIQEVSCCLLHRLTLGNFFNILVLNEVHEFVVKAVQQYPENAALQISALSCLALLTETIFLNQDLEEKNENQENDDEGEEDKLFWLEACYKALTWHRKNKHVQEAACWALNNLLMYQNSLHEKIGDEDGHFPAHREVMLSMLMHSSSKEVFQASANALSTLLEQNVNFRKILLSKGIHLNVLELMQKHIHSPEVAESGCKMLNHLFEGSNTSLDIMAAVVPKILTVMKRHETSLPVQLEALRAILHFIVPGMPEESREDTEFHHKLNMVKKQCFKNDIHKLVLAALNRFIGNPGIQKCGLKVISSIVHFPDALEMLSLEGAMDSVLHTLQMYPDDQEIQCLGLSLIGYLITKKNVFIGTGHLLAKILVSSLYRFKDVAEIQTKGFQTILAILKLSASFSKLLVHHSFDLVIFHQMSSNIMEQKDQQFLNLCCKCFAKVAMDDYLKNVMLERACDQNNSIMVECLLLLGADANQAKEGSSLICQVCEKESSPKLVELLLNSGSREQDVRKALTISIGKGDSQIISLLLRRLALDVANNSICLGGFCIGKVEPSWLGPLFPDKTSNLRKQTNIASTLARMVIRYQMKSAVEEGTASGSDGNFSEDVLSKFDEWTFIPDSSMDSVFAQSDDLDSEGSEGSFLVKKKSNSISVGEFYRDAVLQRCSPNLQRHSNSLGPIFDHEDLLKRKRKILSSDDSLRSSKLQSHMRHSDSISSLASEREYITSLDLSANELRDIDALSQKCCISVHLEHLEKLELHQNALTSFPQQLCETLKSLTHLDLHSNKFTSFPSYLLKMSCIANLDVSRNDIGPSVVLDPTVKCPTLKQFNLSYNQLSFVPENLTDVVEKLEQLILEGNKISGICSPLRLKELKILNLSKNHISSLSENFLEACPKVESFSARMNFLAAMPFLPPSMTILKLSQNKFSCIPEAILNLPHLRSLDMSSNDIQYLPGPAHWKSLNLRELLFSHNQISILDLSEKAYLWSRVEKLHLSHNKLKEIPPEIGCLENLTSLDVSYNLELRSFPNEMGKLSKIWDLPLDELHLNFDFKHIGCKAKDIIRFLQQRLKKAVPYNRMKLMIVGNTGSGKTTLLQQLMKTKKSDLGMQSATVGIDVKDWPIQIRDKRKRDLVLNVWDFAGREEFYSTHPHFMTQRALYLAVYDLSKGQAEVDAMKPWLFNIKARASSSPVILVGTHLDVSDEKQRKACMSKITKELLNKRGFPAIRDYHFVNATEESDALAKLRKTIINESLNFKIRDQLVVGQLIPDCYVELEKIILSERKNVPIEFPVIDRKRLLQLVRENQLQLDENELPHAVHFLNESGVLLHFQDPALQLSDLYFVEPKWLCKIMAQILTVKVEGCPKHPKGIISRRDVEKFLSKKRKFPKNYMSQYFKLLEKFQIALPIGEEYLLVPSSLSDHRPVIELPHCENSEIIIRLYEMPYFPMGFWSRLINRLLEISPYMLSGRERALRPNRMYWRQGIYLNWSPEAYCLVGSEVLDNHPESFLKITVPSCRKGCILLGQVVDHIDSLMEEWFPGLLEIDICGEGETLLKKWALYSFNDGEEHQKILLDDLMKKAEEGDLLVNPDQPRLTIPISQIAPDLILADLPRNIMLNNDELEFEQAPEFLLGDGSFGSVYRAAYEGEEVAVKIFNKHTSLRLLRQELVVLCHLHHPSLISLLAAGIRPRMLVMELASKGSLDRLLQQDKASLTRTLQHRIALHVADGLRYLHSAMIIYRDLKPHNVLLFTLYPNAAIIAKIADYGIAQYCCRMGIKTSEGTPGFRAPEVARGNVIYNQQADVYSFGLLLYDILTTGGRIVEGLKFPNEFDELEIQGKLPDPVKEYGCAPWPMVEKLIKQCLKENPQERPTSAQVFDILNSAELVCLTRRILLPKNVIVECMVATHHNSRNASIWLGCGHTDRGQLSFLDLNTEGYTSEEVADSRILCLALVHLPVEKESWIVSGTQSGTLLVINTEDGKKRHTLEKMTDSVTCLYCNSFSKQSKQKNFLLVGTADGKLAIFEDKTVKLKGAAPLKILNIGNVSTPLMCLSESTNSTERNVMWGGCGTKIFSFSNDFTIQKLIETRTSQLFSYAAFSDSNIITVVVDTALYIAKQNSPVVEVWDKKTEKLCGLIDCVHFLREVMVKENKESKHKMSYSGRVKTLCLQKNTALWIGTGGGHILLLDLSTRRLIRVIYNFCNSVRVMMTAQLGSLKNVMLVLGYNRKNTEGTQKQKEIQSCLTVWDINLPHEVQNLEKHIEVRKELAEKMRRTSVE
# test_protocol: Cellular LRRK2 phosphoserine 935 dephosphorylation spotblot assay in SH-SY5Y cells stably expressing 3xFlag-LRRK2
# Format: cell-based
# condition_description: pS935 level as % of control, 5 μM for 2 h, SH-SY5Y cells with stable expression of LRRK2
value_type: Cellular pS935 (% @ 5 μM) (%)

molecular_string	Cellular pS935 (% @ 5 μM), %
CCOC(=O)c1c(C)[nH]c(/C=C2\C(=O)Nc3ccccc32)c1C	60.83
COc1cc2ncnc(Nc3ccc(Oc4ccccc4)cc3)c2cc1OC	61.51
CN[C@@H]1C[C@H]2O[C@@](C)([C@@H]1OC)n1c3ccccc3c3c4c(c5c6ccccc6n2c5c31)C(=O)NC4	8.89
COc1cc(N2CCOCC2)ccc1Nc1ncc(F)c(Nc2ccccc2NS(C)(=O)=O)n1	8.62
COc1cc2ncnc(Nc3ccc(NC(=O)c4ccccc4)cc3)c2cc1OC	69.85
CC(C)[C@H](CO)Nc1nc(Nc2cc(N)cc(Cl)c2)c2ncn(C(C)C)c2n1	121.05

[I] Cc1[nH]c(/C=C2\C(=O)Nc3ccc(S(=O)(=O)N(C)c4cccc(Cl)c4)cc32)c(C)c1C(=O)N1CCN(C)CC1
[II] COc1ccc2c(c1)/C(=C/c1cnc[nH]1)C(=O)N2
// which entry has the larger Cellular pS935 (% @ 5 μM) value, I or II ? Bench note: the answer is the label of the chosen record. II

----------
# system: LRRK2 phospho-Ser935 (Homo sapiens)
# Construct: expressed in transfected cells
# test_protocol: Cellular LRRK2 phosphoserine 935 dephosphorylation spotblot assay in SH-SY5Y cells stably expressing 3xFlag-LRRK2
# Assay type: cell-based
# condition_description: @ 5 μM for 2 h; SH-SY5Y stably expressing LRRK2; pS935/total LRRK2
value_type: Phosphorylation level relative to solvent (%) (cellular pS935 assay)

compound	system	units	measured_value
c1ccc2c(-c3ccncc3)c[nH]c2c1 [Rho kinase inhibitor III, rockout, rockout]	LRRK2 phospho-Ser935 (Homo sapiens)	%	63.04
O=c1cc(-c2cccc3c2Sc2ccccc2S3)oc(N2CCOCC2)c1 [ATM kinase inhibitor]	LRRK2 phospho-Ser935 (Homo sapiens)	%	103.28
COc1cc2nccc(Oc3ccc(NC(=S)NC(=O)c4ccccc4C)cc3)c2cc1OC [PDGF RTK inhibitor]	LRRK2 phospho-Ser935 (Homo sapiens)	%	77.68
CC(C)[C@H](CO)Nc1nc(Nc2cccc(Cl)c2)c2ncn(C(C)C)c2n1 [Purvalanol A]	LRRK2 phospho-Ser935 (Homo sapiens)	%	121.26
COc1ccc(Cl)cc1NC(=O)Nc1cc(C)nc2ccccc12 [IGF-1R inhibitor II]	LRRK2 phospho-Ser935 (Homo sapiens)	%	80.40
CSc1nc(-c2ccnc(NC(C)c3ccccc3)c2)c(-c2ccc(F)cc2)[nH]1 (stereo not drawn) [p38 MAP kinase inhibitor III]	LRRK2 phospho-Ser935 (Homo sapiens)	%	83.74
O=C(Nc1cccc(Nc2cc(Nc3cccc(C(F)(F)F)c3)ncn2)c1)C1CC1 [EGFR inhibitor]	LRRK2 phospho-Ser935 (Homo sapiens)	%	57.76

[1] Cc1[nH]c(/C=C2\C(=O)Nc3ccc(S(=O)(=O)N(C)c4cccc(Cl)c4)cc32)c(C)c1C(=O)N1CCN(C)CC1 [Met kinase inhibitor]
[2] Nc1cccc(-c2cc3c(Oc4cccc(O)c4)ncnc3[nH]2)c1 [GSK-3b inhibitor XII, TWS119, TWS119]
Between the entries labeled 1 and 2 , whose measured Phosphorylation level relative to solvent (%) (cellular pS935 assay) is lower? Your choice should be expressed through its label. 1

----------
# system: GST-tagged truncated LRRK2 containing residues 970 to 2527 (Homo sapiens)
# Construct: GST-tagged truncated LRRK2 containing residues 970 to 2527 (Life Technologies); purchased Life Technologies
# test_protocol: In vitro LRRKtide peptide-substrate kinase assay, single dose testing (10 μM)
# Type: biochemical
# condition_description: LRRKtide assay @ 10 μM inhibitor; GST-LRRK2 970-2527; 10 μM ATP; mean, N = 3; solvent control = 100%
value_type: % LRRKtide phosphorylation relative to solvent (%)

compound	units	measured_value
O=C1Nc2ccc(Cl)cc2/C1=C/c1cc(Cl)c(O)c(Cl)c1 [PKR inhibitor, negative control]	%	1.07
CCOc1nc(NC(=O)Cc2cc(OC)ccc2OC)cc(N)c1C#N	%	105.45
c1ccc(-c2cnc(Nc3ccc(OCCN4CCCC4)cc3)s2)cc1	%	12.56
O=C(O)/C=C/c1cc(Br)c(Br)c(Br)c1Br	%	16.78
COc1ccc2c(c[n+](C)c3c4cc5c(cc4ccc23)OCO5)c1OC [Chelerythrine chloride]	%	77.91
Nc1cccc(-c2cc3c(Oc4cccc(O)c4)ncnc3[nH]2)c1	%	13.54
COC(=O)[C@@]1(O)C[C@H]2O[C@]1(C)n1c3ccccc3c3c4c(c5c6ccccc6n2c5c31)C(=O)NC4 [K-252a, Nocardiopsis sp., K-252a]	%	1.13

----------
# system: LRRK2 phospho-Ser935 (Homo sapiens)
# Construct: expressed in transfected cells
# test_protocol: Cellular LRRK2 phosphoserine 935 dephosphorylation spotblot assay in SH-SY5Y cells stably expressing 3xFlag-LRRK2
# Type: cell-based
# condition_description: @ 5 μM for 2 h; SH-SY5Y stably expressing LRRK2; pS935/total LRRK2
value_type: Phosphorylation level relative to solvent (%) (cellular pS935 assay)

Here are 4 compounds together with their reported answers.
molecular_string	measured_value
CCN(CC)CCCCN1c2ccccc2Oc2ccc(Cl)cc21	69.13
O=c1cc(N2CCOCC2)oc2c1ccc1ccccc12	81.93
c1ccc(-c2[nH]ncc2-c2ccnc3ccccc23)nc1	71.73
COc1cc2ncnc(Nc3ccc(Oc4ccccc4)cc3)c2cc1OC	61.51

[I] Nc1ncnc2c1c(-c1ccc(Oc3ccccc3)cc1)cn2C1CCCC1
[II] CCc1[nH]c(-c2ccc(OC)cc2)nc1-c1ccncc1
Compare I and II and name the one whose reported Phosphorylation level relative to solvent (%) (cellular pS935 assay) is smaller. Identify your selection by its label. I
(I: 61.54%, II: 112.24%)

----------
# system: full length LRRK2 protein (Homo sapiens, UniProt Q5S007)
# Construct: compounds were tested in triplicate with full length LRRK2 protein; made in house
# Sequence (Q5S007 whole entry): as above
# test_protocol: In vitro LRRKtide kinase assay with full length recombinant LRRK2, dose-response (IC50/pIC50)
# Assay type: biochemical
# condition_description: LRRKtide phosphorylation, dose-response
value_type: pIC50 in vitro (lrrktide)

molecule	pIC50 in vitro (lrrktide)
COc1cc(N2CCOCC2)ccc1Nc1ncc(F)c(Nc2ccccc2NS(C)(=O)=O)n1	8.75
CCOc1cc2ncnc(Nc3cccc(Br)c3)c2cc1OCC	5.52
Cc1[nH]c(/C=C2\C(=O)Nc3ccc(S(=O)(=O)N(C)c4cccc(Cl)c4)cc32)c(C)c1C(=O)N1CCN(C)CC1	7.37
O=C1Nc2ccc3ncsc3c2/C1=C/c1cnc[nH]1	6.44
O=C1Nc2ccc(Br)cc2/C1=C/c1cc2c([nH]1)CCCC2	7.44
CN(C)c1ccc(/C=C2\C(=O)Nc3ccccc32)cc1	5.83

[P] CCOC(=O)c1c(C)[nH]c(/C=C2\C(=O)Nc3ccccc32)c1C
[Q] CCC(=O)Nc1ccc2ncnc(Nc3cccc(Br)c3)c2c1
// select label with min value of measured pIC50 in vitro (lrrktide) from [ P , Q ] Kindly give the label for the entry you pick. Q
(Q: 5.05, P: 7.61)

----------
# system: GST-tagged truncated LRRK2 containing residues 970 to 2527 (Homo sapiens, UniProt Q5S007)
# Construct: GST-tagged truncated LRRK2 containing residues 970 to 2527 (Life Technologies); purchased Life Technologies
# Sequence (Q5S007 970-2527): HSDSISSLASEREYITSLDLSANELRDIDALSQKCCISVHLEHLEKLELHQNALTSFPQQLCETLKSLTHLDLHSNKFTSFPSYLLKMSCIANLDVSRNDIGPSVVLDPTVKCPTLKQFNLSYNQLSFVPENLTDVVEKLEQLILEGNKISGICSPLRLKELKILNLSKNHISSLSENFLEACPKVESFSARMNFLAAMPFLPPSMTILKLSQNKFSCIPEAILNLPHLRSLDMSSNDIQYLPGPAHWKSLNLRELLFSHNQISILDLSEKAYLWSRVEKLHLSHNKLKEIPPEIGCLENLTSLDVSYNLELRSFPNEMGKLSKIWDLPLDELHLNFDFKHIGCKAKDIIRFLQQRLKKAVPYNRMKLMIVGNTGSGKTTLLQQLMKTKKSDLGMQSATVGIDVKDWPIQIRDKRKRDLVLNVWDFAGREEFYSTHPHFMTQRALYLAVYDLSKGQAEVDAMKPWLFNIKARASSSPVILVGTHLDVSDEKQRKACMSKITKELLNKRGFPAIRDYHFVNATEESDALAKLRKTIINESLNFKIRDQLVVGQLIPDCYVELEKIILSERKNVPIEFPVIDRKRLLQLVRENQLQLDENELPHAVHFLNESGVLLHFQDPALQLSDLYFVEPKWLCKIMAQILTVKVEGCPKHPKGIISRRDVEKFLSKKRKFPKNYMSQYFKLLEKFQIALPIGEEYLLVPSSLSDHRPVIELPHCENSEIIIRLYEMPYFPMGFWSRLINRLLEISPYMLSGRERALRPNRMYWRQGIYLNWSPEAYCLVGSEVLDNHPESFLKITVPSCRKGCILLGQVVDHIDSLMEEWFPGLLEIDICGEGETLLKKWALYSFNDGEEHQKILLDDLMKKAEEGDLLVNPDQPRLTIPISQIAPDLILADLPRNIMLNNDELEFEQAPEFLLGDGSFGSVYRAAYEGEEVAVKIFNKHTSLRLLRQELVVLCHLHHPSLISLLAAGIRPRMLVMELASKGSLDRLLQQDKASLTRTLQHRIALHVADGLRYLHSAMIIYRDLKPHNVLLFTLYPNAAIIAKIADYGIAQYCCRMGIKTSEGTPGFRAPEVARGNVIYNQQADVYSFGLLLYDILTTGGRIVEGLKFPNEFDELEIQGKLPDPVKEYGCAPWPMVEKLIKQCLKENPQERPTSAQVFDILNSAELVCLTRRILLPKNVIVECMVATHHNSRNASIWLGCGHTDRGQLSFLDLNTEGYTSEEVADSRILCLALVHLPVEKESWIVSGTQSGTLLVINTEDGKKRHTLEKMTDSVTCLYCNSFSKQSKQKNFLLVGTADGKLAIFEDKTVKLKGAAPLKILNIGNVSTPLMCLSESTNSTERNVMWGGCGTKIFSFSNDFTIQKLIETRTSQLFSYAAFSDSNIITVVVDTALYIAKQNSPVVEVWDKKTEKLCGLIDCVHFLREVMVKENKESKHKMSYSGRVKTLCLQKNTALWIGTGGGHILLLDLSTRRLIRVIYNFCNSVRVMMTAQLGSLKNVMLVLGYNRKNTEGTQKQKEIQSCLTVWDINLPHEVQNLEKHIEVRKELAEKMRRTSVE
# test_protocol: In vitro LRRKtide peptide-substrate kinase assay, single dose testing (10 μM)
# Format: biochemical
# condition_description: LRRKtide assay @ 10 μM inhibitor; GST-LRRK2 970-2527; 10 μM ATP; mean, N = 3; solvent control = 100%
value_type: % LRRKtide phosphorylation relative to solvent (%)

For orientation, consider the following solved cases.
molecule	system	units	measured_value
Cn1sc(=O)n(Cc2ccccc2)c1=O	GST-tagged truncated LRRK2 containing residues 970 to 2527 (Homo sapiens, UniProt Q5S007)	%	106.35
Cc1cc(Nc2nc(-c3ccccc3)nc3ccccc23)n[nH]1	GST-tagged truncated LRRK2 containing residues 970 to 2527 (Homo sapiens, UniProt Q5S007)	%	3.34
COc1ccc(-c2cnc3c(-c4ccsc4)cnn3c2)cc1	GST-tagged truncated LRRK2 containing residues 970 to 2527 (Homo sapiens, UniProt Q5S007)	%	77.83
Nc1ncnc2c1cnn2-c1ccccc1	GST-tagged truncated LRRK2 containing residues 970 to 2527 (Homo sapiens, UniProt Q5S007)	%	68.38
COc1cc2ncnc(Nc3ccc(NC(=O)c4ccccc4)cc3)c2cc1OC	GST-tagged truncated LRRK2 containing residues 970 to 2527 (Homo sapiens, UniProt Q5S007)	%	22.60

[I] O=C1NC(=O)C(c2cn(CCCn3ccnc3)c3ccccc23)=C1Nc1ccccc1
[II] CC(C)n1cnc2c(Nc3cccc(Cl)c3)nc(NCCO)nc21
[III] Nc1[nH]nc2nc3ccccc3nc12
[IV] N#CC(C#N)=C(N)/C(C#N)=C/c1ccc(O)cc1
Returns the items ordered by % LRRKtide phosphorylation relative to solvent, from maximum to minimum. Respond with the label ranking, as requested. IV, III, II, I
(IV: 77.45%, III: 25.04%, II: 7.76%, I: 3.56%)

[1] NCCNc1ncc(C(N)=O)c(Nc2cccc(C(F)(F)F)c2)n1
[2] CCC(=O)Nc1ccc2ncnc(Nc3cccc(Br)c3)c2c1
Dear colleague, could you let me know whether 1 or 2 has the lower recorded % LRRKtide phosphorylation relative to solvent? Thanks. Choose, then provide that item's label. 1
(1: 3.50%, 2: 32.67%)

[a] O=C(CCCc1ccc(-c2ccccc2F)cc1)Nc1ccc(O)cc1
[b] O=C1Cc2c([nH]c3ccc([N+](=O)[O-])cc23)-c2ccccc2N1
[c] CN([C@@H](Cc1ccc(OS(=O)(=O)c2cccc3cnccc23)cc1)C(=O)N1CCN(c2ccccc2)CC1)S(=O)(=O)c1cccc2cnccc12
Arrange by % LRRKtide phosphorylation relative to solvent, high to low. Returns: the labels listed in the requested order. a, b, c
(a: 123.21%, b: 31.34%, c: 17.20%)

[a] CC(C)N(CCC(=O)c1ccc2ccccc2c1)Cc1ccccc1
[b] c1ccc2c(-c3ccncc3)c[nH]c2c1
[c] COc1ccc2c(c1)c(C1=C(c3c[nH]c4ccccc34)C(=O)NC1=O)cn2CCCN(C)C
[d] c1ccc(-c2[nH]ncc2-c2ccnc3ccccc23)nc1
[e] CCN(CC)CCNC(=O)c1c(C)[nH]c(/C=C2\C(=O)Nc3ccc(Cl)cc32)c1C
// sort entries: % LRRKtide phosphorylation relative to solvent, high to low Please list each label once, in the requested order. a, d, b, c, e

[a] O=c1cc(N2CCOCC2)oc2c1ccc1ccccc12
[b] c1cc(-c2cnn3cc(-c4ccc(OCCN5CCCCC5)cc4)cnc23)ccn1
[c] COc1ccc(CNC(=O)Nc2ncc([N+](=O)[O-])s2)cc1
// smallest % LRRKtide phosphorylation relative to solvent at index 0, largest at the end List the labels according to the requested ordering. b, a, c

The values you see were collected from paper PMC4042160.
